assaySystem: furin, P09958;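 note: purified furin at 1:10 enzyme:substrate in 50 mM HEPES pH 7.5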
Sequence (P09958 whole entry): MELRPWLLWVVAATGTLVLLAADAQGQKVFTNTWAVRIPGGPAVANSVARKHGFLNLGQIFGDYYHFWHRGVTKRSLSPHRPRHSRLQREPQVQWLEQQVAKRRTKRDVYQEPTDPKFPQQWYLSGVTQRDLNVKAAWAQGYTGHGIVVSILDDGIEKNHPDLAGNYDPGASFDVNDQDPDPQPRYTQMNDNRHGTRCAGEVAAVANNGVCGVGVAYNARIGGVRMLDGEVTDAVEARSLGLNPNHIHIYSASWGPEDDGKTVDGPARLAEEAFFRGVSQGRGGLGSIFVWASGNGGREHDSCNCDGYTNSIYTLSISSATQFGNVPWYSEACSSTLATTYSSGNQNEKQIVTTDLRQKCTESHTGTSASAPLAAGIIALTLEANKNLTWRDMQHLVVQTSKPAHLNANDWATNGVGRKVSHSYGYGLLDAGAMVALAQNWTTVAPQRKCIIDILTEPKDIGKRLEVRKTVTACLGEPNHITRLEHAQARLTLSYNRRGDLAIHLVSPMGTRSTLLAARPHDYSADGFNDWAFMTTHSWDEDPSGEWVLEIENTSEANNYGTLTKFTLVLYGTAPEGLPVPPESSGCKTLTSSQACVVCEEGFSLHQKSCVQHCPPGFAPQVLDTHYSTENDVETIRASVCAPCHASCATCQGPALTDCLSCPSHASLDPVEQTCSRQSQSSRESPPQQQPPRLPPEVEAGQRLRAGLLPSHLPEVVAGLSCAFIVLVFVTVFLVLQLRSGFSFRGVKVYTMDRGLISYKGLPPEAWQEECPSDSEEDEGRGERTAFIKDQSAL
method: furin cleavage Z-score vs untreated control; higher = more cleavage, active = 3.5 or more, inactive = 1 or less, 8 variable residues between constant flanks
statedConditions: 7.5 min
The list shows a part of the results. No count for the full screen is at hand.
Classify as follows. Reported furin cleavage Z-score greater than or equal to 2: T. Reported furin cleavage Z-score below: F.

INSERT INTO measurements (sequenceentry, qualitativelabel) VALUES
  ('CAWDVVCCSMAGNASASA [HC2108]', 'F'),
  ('CATSPRTKRTAGNASASA [FS-1576]', 'T'),
  ('CAPSPVVVGTAGNASASA [HC416]', 'F'),
  ('CASSPRCKRTAGNASASA [FS-724]', 'T'),
  ('CATTPCSHSWAGNASASA [HC1895]', 'F'),
  ('CAHLEVVTSTAGNASASA [HC2275]', 'F'),
  ('CATWMNSTGFAGNASASA [HC437]', 'F'),
  ('CAIKSLTERLAGNASASA [HC1497]', 'F'),
  ('CAHSSRLKRLAGNASASA [FS-1011]', 'T'),
  ('CAPSERTRRTAGNASASA [FS-1553]', 'T'),
  ('CASVAATLGFAGNASASA [HC789]', 'F'),
  ('CAEVVTSTCVAGNASASA [HC2240]', 'F'),
  ('CATFAVEKRGAGNASASA [FS-1289]', 'F'),
  ('CAIFRAAVCTAGNASASA [HC750]', 'F');
